# Tested on: respiratory syncytial virus (RSV, A2 strain expressing eGFP, Long strain or RSV-B)
# Assay comment: Antiviral activity on RSV in HEp-2 cells
# Format: cell-based
# Condition context: human respiratory syncytial virus, HEp-2, 45 h, read-out: IC50 (50% inhibitory concentration)
pIC50: −log10 of the molar value.
Readout: pIC50

>  <Smiles str>
[2H]C([2H])([2H])OC(=O)c1c(-c2c(F)cccc2Cl)noc1-c1cnn(-c2cccc(Cl)c2)c1C(F)(F)F

>  <Target>
respiratory syncytial virus (RSV, A2 strain expressing eGFP, Long strain or RSV-B)

>  <Readout>
pIC50

>  <Observed result>
> 7.30

$$$$

Data provenance: patent US20250243190A1
